Target: 5-hydroxytryptamine receptor 1A (Homo sapiens, UniProt P08908)
Sequence (P08908 whole entry): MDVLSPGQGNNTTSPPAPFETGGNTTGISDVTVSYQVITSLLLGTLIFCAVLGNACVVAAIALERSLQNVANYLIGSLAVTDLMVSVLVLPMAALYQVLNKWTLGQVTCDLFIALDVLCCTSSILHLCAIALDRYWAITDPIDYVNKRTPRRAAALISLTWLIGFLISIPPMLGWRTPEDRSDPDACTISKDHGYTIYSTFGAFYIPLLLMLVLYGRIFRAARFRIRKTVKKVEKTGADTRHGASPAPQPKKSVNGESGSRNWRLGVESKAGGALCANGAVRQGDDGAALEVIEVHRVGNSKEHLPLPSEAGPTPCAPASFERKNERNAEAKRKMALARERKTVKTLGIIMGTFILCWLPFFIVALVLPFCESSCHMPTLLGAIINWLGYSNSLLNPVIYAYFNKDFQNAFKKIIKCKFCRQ
Test: biochemical
quantity: Ki (nM)
Just the number in nM, nothing appended.

Completed entries (count: 2):
O=S(=O)(NCCCN1CCN(c2cccc(Cl)c2Cl)CC1)c1ccc2ncccc2c1
25
O=S(=O)(NCCCCN1CCN(c2cccc(Cl)c2Cl)CC1)c1cncc2ccccc12
59

**Query** What Ki appears in the records for this compound with 5-hydroxytryptamine receptor 1A (Homo sapiens, UniProt P08908)? O=S(=O)(NCCCCN1CCN(c2cccc(Cl)c2Cl)CC1)c1ccc2ncccc2c1
**Result** 79

**Query** # repeat for O=S(=O)(NCCCN1CCN(c2cccc(Cl)c2Cl)CC1)c1cnc2ccc(Cl)cc2c1
**Result** 23

**Query** # repeat for O=S(=O)(NCCCCN1CCN(c2cccc(Cl)c2Cl)CC1)c1cccc2cccnc12
**Result** 112

**Query** # repeat for O=S(=O)(NCCCCN1CCN(c2cccc(Cl)c2Cl)CC1)c1cnc2ccccc2c1
**Result** 23

**Query** # repeat for O=S(=O)(NCCCCN1CCN(c2cccc(Cl)c2Cl)CC1)c1cnc2ccc(Cl)cc2c1
**Result** 88
